melting point reference

-- ask Form field: reported melting point of CCOCCOC(=O)C(=O)Nc1nc(-c2ccccc2)cs1
-- reply 109 to 110 °C

Now turn to the next molecule.
-- ask Form field: reported melting point of COc1cccc(-c2cn(-c3ccccc3)c3ncnc(N)c23)c1
-- reply 159 to 160 °C

----------
melting point reference

Would you please look over these solved cases?
-- ask Form field: reported melting point of COc1cc(C=C(C#N)C(=O)Nc2ccccc2)cc(Cl)c1O
-- reply 273 °C

-- ask Form field: reported melting point of CCOC(=O)c1cc2c(nc(C)n2C)c(O)c1CCC(O)c1ccccc1 (stereo unspecified)
-- reply 193 to 195 °C

-- ask Form field: reported melting point of O=C(C=Cc1cccnc1)NCC=CCN1CCN(C(c2ccccc2)c2ccccc2)CC1
-- reply 116 to 119 °C

-- ask Form field: reported melting point of Cc1cc(-c2nnc3c4ccccc4c(OCc4nc[nH]n4)nn23)no1
-- reply 260 to 262 °C

-- ask Form field: reported melting point of NC(=O)c1nnn(Cc2ccccc2F)c1C(N)=O
-- reply 49 to 51 °C

Next:
-- ask Form field: reported melting point of Cc1cccc(NC(C(N)=O)c2ccccc2C)c1 (stereo unspecified)
-- reply 90 to 91.5 °C

-- ask Form field: reported melting point of CC(C)(C)OC(=O)NCc1cccc(C(=O)O)c1
-- reply 127 to 128 °C
